Values were extracted from PubChem BioAssay AID504660.

# assayed.system: D(1A) dopamine receptor (Homo sapiens) (UniProt P21728)
# Sequence (P21728 whole entry, looked up): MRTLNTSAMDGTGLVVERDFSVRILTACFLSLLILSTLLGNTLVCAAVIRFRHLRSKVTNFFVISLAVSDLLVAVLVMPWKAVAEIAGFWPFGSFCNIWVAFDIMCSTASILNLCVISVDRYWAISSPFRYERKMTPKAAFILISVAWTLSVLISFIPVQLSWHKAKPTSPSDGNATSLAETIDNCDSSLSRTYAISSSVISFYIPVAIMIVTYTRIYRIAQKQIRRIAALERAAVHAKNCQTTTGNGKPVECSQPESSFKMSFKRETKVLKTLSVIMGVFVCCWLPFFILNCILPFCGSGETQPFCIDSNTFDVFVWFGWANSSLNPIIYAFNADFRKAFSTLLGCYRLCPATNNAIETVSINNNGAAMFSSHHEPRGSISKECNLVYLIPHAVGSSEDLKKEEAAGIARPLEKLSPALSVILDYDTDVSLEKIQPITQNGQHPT
# assay.name: Allosteric Agonists of the Human D1 Dopamine Receptor: qHTS; further: 0% is about no effect
# condition.set: HEK293 T-REx D1 cells, calcium flux, agonist mode; at 2 µM; hits give high values
Out of some 360,000 compounds screened, about 3,700 (1%) were called active. The entries come from a sample that favours actives as a whole.
// activation lookup, one value per entry
Dear colleague, please return just the value in %, with no unit written.

Example entries and their recorded answers appear below.
1) COc1cc(C(=S)NCc2ccccc2)cc(Br)c1O; 1.7
2) CCCS(=O)(=O)c1ncc(Cl)c(C(=O)Nc2scc(-c3ccccc3)c2C(=O)OCC)n1; 5.24

Input Cc1ccc2[nH]c(=O)c(-c3nc4c(C)cccn4c3NCc3ccco3)cc2c1 . Output activation: 1.97

// sample c1ccc(C[C@H]2CNCCN2CCC23CC4CC(CC(C4)C2)C3)cc1 , its activation was 39.5

Notebook: CCC(=O)c1ccc(OCC(=O)N(CC)CC2COc3ccccc3O2)cc1 (stereo not given) , activation read as 3.24
